B1: STX5 (parent)
chain: ESTIVELGSIFQQLAHMVKEQEET

Variants of: B1
Assay Text: protein stability index of a GFP-peptide fusion (GPS, HEK-293T) (PSI 1-6); higher = more stable;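 further: lentivirally expressed fusions sorted by FACS into six bins by GFP to DsRed ratio, PSI derived from sequencing read proportions per bin multiplied by bin number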
Condition Summary: c terminus: a fixed tail appended
Rule: 1 for protein stability index not less than 2, -1 for anything less.

Please review the entries below; each comes with its answer.
>>> label("L14Q")
1
>>> label("M17C")
1

Say whether H16R shows protein stability index of 2 or more.
-1

Reported protein stability index at or above 2? V18L
-1

Check the entry Q12C : does protein stability index equal or exceed 2?
-1
